Test system: Aspergillus niger
TEST DESCRIPTION: agar plate system (Table II)
Format: cell-based
CONDITIONS: antibiotic medium 22, 72 hours at 30° C., read-out: Minimum Inhibitory Concentration
Measured MIC, listed per entry for reference.
Give your result in µg/mL as a bare value.

Worked examples, 3 compounds total:
# COMPOUND, MIC, µg/mL
measured = [
    ("CCC1OCC(Br)([N+](=O)[O-])CO1 (stereo not drawn)", 12.5),
    ("CC1OCC(Br)([N+](=O)[O-])CO1 (stereo not drawn)", 12.5),
    ("CCCC1OCC(Br)([N+](=O)[O-])CO1 (stereo not drawn)", 6.25),
]

Quick one: MIC for CC(C)C1OCC(Br)([N+](=O)[O-])CO1 (stereo not drawn) ? 12.5

Entry O=[N+]([O-])C1(Br)COCOC1 [Compound B, 5-bromo-5-nitro-1,3-dioxane, reference compound] has what MIC? 25

FYI, the data here is from patent US4025533A.
